system: HIV-1 Subtype Isolates; experiment: Activity against HIV-1 subtype isolates in PBMCs, RT endpoint; conditions: Human immunodeficiency virus 1, PBMC, read-out: IC50s against all major HIV subtypes, subtypes A-G, O and HIV-2, Tables 2 and 3
pIC50: −log10 of the molar value.
parameter: pIC50

Endpoint output: pIC50 of CCCCCCCCCCCCCCCCOCCCOP(=O)(O)CO[C@H](C)Cn1cnc2c(N)ncnc21 [CMX157] . Value?
8.14 to 9.70

====

system: HIV; experiment: microbe, parasite or virus in culture; format: cell-based; details: PANEL 37, M41L + T215Y + M184V; read-out: IC50
parameter: pIC50
Please express pIC50 as -log10 of the molar concentration.

Fill in: pIC50 of C[C@H](Cn1cnc2c(N)ncnc21)OCP(=O)(O)O [TFV, (R)-9-(2-phosphonylmethoxypropyl)adenine] is ___
5.99

====

tested on: HIV; assay: microbe, parasite or virus in culture; type: cell-based; details: Human immunodeficiency virus 1, PANEL 9, 69ins, no 184
Lab note: cut-off is 30 µM. Strictly less in IC50 is Criterion met. Exactly 30 µM or more is Criterion not met.

Does the reported IC50 of the following compound sit strictly below 30 µM? Cc1cn([C@H]2C=C[C@@H](CO)O2)c(=O)[nH]c1=O [d4T, 2′,3′-didehydro-3′-deoxythymidine]
Criterion met

# iterate: `Nc1nc(NC2CC2)c2ncn([C@H]3C=C[C@@H](CO)C3)c2n1`
Criterion not met

// same read-out, input: `Nc1ccn([C@@H]2CS[C@H](CO)O2)c(=O)n1`
Criterion not met

Now the same for `OC[C@@H]1CC[C@H](n2cnc3c(O)ncnc32)O1`
Criterion met

Continue with `CCCCCCCCCCCCCCCCOCCCOP(=O)(O)CO[C@H](C)Cn1cnc2c(N)ncnc21`
Criterion met

====

tested on: HIV; assay: microbe, parasite or virus in culture; assay type: cell-based; conditions: Human immunodeficiency virus 1, PANEL 47, D67N + K70E + M184V
parameter: pIC50
Here pIC50 is given on a logarithmic scale as minus log10 of the concentration in mol/L.

Any idea what its pIC50 is? The compound is CCCCCCCCCCCCCCCCOCCCOP(=O)(O)CO[C@H](C)Cn1cnc2c(N)ncnc21 [CMX157]
8.84

Could you do the same for OC[C@@H]1CC[C@H](n2cnc3c(O)ncnc32)O1 [ddI, 2′,3′-dideoxyinosine] , please?
5.14

Next: Cc1cn([C@H]2C[C@H](N=[N+]=[N-])[C@@H](CO)O2)c(=O)[nH]c1=O [ZDV, 3′-azido-2′,3′-dideoxythymdine]
8.40

Ok, now Cc1cn([C@H]2C=C[C@@H](CO)O2)c(=O)[nH]c1=O [d4T, 2′,3′-didehydro-3′-deoxythymidine]
6.38

What do we get for Nc1nc(NC2CC2)c2ncn([C@H]3C=C[C@@H](CO)C3)c2n1 [ABC, abacavir] ?
5.30

====

system: HIV; assay: microbe, parasite or virus in culture; format: cell-based; settings: PANEL 45, L210W + T215Y; read-out: IC50
parameter: pIC50
Remember, pIC50 is on a log scale: it is -log10 of the molar concentration.

I am curious: what pIC50 value has been reported for C[C@H](Cn1cnc2c(N)ncnc21)OCP(=O)(O)O [TFV, (R)-9-(2-phosphonylmethoxypropyl)adenine] ?
5.99
